Target: BRD9-GFP (Homo sapiens, UniProt Q9H8M2)
Construct: CHYSEL (2A cis-acting hydrolase element) remnant after GFP; mCherry is split off as a separate protein (C); expressed in transfected cells; host or cells: HEK293A cells (Invitrogen R70507), lentiviral transduction with pLenti6-BRD9-GFP-CHYSEL-mCherry, blasticidin selection
Sequence (Q9H8M2 whole entry): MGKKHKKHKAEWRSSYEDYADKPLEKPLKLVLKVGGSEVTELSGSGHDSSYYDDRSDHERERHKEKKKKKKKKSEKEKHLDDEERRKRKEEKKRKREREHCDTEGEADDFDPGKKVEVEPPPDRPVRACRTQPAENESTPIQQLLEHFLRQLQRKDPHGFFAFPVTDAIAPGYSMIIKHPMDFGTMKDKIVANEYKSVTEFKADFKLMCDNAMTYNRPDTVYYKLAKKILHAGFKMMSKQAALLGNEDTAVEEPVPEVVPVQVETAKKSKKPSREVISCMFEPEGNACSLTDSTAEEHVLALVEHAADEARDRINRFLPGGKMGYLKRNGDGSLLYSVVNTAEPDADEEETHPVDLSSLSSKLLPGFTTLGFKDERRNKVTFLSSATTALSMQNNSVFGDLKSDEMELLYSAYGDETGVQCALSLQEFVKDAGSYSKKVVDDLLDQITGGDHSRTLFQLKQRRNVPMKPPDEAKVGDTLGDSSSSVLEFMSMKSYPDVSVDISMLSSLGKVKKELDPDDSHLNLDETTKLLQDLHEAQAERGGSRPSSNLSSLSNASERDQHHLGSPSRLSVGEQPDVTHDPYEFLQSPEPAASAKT
Assay: BRD9-GFP protein abundance flow cytometry assay in HEK293A cells
Assay type: cell-based
Settings: HEK293A-BRD9-GFP-CHYSEL-mCherry cells, 24 h at 37° C., 10-point 1:3 dilution; concentration at which 50% maximal degradation was observed
experimental.endpoint: DC50 (nM)

CCCCn1cc(-c2ccc(OC3CCN(CC4CCN(C(=O)c5ccc(OC)c(N6CCC(=O)NC6=O)c5)CC4)CC3)c(Cl)c2)c2ccncc2c1=O [Compound E43] ... 3

I: CCCCn1cc(-c2ccc(O[C@H]3CCN(CC4CCN(C(=O)c5ccc(OC)c(N6CCC(=O)NC6=O)c5)CC4)C[C@@H]3F)c(F)c2)c2ccncc2c1=O [Compound E16]
II: COc1cc(-c2cn(C)c(=O)c3cnccc23)cc(OC)c1CN1CCC(OC2CCN(C(=O)c3cccc(N4CCC(=O)NC4=O)c3)CC2)CC1 [Compound A36]
III: Cn1cc(-c2cc(F)c(CN3CCC(OC4CCN(CCn5cccc(CN6CCC(=O)NC6=O)c5=O)CC4)CC3)c(F)c2)c2ccncc2c1=O [Compound E18]
IV: Cn1cc(-c2cc(F)c(CN3CCC(OC4CCN(CCn5cccc(CN6CCC(=O)NC6=O)c5=O)CC4)CC3)cc2F)c2ccncc2c1=O [Compound E1]
V: CCCn1cc(-c2cc(OC)c(CCN3CCC(OC4CCN(C(=O)c5ccc(Cl)c(N6CCC(=O)NC6=O)c5)CC4)CC3)c(OC)c2)c(C)c(C)c1=O [Compound B2]
Exercise: // ascending sort on recorded DC50 Answer by writing out the labels in the requested order.
Key: I, V, IV, III, II
